// reported MIC per item
Test system: Pseudomonas aeruginosa
Experiment: Antimicrobial activity against Pseudomonas aeruginosa ATCC 10145 assessed as growth inhibition after 24 hr by broth dilution assay method
Format: functional
Settings: ATCC 10145, 24 h
# unit: µg/mL | format: bare number

Record Smiles: CC(C)c1csc(-c2nnc(SCC(=O)NN)n2-c2ccccc2)n1
MIC [µg/mL]: 8
//
Record Smiles: C/C(=N\NC(=O)CSc1nnc(-c2nc(C(C)C)cs2)n1-c1ccccc1)c1ccc([N+](=O)[O-])cc1
MIC [µg/mL]: 62.5
//
Record Smiles: CC(C)c1csc(-c2nnc(SCc3nnc(-c4ccc(O)cc4)o3)n2-c2ccccc2)n1
MIC [µg/mL]: 31.2
//
Record Smiles: CCOC(=O)CSc1nnc(-c2nc(C(C)C)cs2)n1-c1ccccc1
MIC [µg/mL]: 62.5
//
Record Smiles: COc1ccc(/C(C)=N/NC(=O)CSc2nnc(-c3nc(C(C)C)cs3)n2-c2ccccc2)cc1
MIC [µg/mL]: 62.5
//
Record Smiles: Cc1ccc(-c2nnc(CSc3nnc(-c4nc(C(C)C)cs4)n3-c3ccccc3)o2)cc1
MIC [µg/mL]: 62.5
//
Record Smiles: COc1ccc(/C=N/NC(=O)CSc2nnc(-c3nc(C(C)C)cs3)n2-c2ccccc2)cc1OC
MIC [µg/mL]: 31.2

Let us examine a further case.
Lab request: please report MIC under test system Pseudomonas aeruginosa for C/C(=N\NC(=O)CSc1nnc(-c2nc(C(C)C)cs2)n1-c1ccccc1)c1ccc(C)cc1
62.5
